biological target: NF-kB p65 (RelA) (UniProt Q04206 Q04206:1-551); assay: competition; conditions: protein: extract; tags: TPA and CI-stimulated Jurkat nuclear extract, Active Motif TransAM kit
Sequence (Q04206 whole entry, one chain of several): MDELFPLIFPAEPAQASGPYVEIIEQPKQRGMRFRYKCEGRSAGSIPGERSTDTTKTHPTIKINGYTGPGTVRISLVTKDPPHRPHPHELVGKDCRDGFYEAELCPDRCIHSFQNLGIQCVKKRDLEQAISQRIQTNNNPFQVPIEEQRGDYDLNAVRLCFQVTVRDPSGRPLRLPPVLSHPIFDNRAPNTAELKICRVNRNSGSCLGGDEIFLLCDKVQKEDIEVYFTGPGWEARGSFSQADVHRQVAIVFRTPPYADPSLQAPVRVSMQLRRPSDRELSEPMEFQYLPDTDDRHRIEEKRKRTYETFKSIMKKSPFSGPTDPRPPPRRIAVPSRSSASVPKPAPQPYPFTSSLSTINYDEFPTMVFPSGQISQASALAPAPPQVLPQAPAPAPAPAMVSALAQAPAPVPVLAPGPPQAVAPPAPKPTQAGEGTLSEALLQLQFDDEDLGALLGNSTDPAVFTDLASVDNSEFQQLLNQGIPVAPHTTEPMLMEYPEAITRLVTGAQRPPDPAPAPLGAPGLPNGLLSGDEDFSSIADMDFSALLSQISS
Quantity Kind: IC50 (nM)
Your answer is read as nM, so omit the unit and give the number.

Reported IC50 ( FSODN16 (dsDNA, PS only in flanks and flank-core bonds) DNA 1: CGCAGGGATTTCCCGCG DNA 2: CGCGGGAAATCCCTGCG ) = 1.11

meta.source: patent US20100167390
